- experimentalTarget: SARS-CoV-2 Receptor Binding Domain (RBD) protein (SARS-CoV-2, UniProt P0DTC2 319-541)
- experimentalDetails: SPR, scFv captured by anti-V5, RBD analyte
measurementKind: kon
# answer = value followed by unit

As a guide, the following entries are already answered.
COVID19_P06_G11 (scFv, V domains shown) VH: QVQLVQSGAEVKKPGASVKVSCKASGNTFTGYYMHWVRQAPGQGLEWMGAIYPGGSDTSYNQKFQGRVTMTRDTSTSTVYMELSSLRSEDTAVYYCTREGIPQLAWTLDYWGQGTLVTVSS VL: DIQMTQSPSSLSASVGDRVTITCRASQSMSSYLNWYQQKPGKAPKLLIYAASSLQSGVPSRFSGSGSGTEFTLTISSLQPEDIATYYCQQFGSFGGGTKVEIKR	65000 M⁻¹ s⁻¹
COVID19_R02_A12 (scFv, V domains shown) VH: QVQLVQSGAEVKKPGASVKVSCKASGYTFTENEMHWVRQAPGQGLEWMGIINTSGGYTNYAQKFQGRVTMTRDTSTSTVYMELSSLRSEDTAVYYCTREGIPQLLRTLDYWGQGTLVTVSS VL: DIQMTQSPSSLSASVGDRVTITCRASQSISSWLAWYQQKPGKAPKLLIYAASSLQSGVPSRFSGSGSGTDFTLTISSLQPEDFATYYCQQSYSNPYTFGGGTKVEIKR	219000 M⁻¹ s⁻¹

Moving on to another binder below.
Q: Kindly indicate its recorded kon. Item: COVID19_P06_G10 (scFv, V domains shown) VH: QVQLVQSGAEVKKPGASVKVSCKASGYDFINYYIHWVRQAPGQGLEWMGIIDPSGGSTSYAQKFQGRVTMTRDTSTSTVYMELSSLRSEDTAVYYCTREGIPQLLRTLDYWGQGTLVTVSS VL: DIQMTQSPSSLSASVGDRVTITCRASQDISDSLAWYQQKPGKAPKLLIYAASSLQSGVPSRFSGSGSGTDFTLTISSLQPEDFATYYCQQSYSRLAWTFGGGTKVEIKR
Result: 330000 M⁻¹ s⁻¹
